METHOD DESCRIPTION: Plasma concentrations and pharmacokinetic parameters after topical ocular, subcutaneous and intravitreal administration
Format: in vivo, New Zealand White rabbits
CONDITION SET: New Zealand White, rabbit, plasma, sc, 5 mg/kg; subcutaneous 5 mg/kg/dose, solution
Where a name gives a salt, the structure may show the parent alone.
QUANTITY: Cmax (ng/mL)
Entry rule: numbers only, all in ng/mL.

Sure, the documented Cmax for COC(=O)N[C@@H](Cc1ccccc1)C(=O)N[C@@H](Cc1ccc(NS(=O)(=O)O)cc1)c1csc(-c2cccs2)n1 [Compound 1 sodium salt] is 1520

###

METHOD DESCRIPTION: Ocular tissue concentrations (aqueous humor, vitreous humor, iris, retina, choroid, cornea) after topical ocular, subcutaneous and intravitreal administration
Assay type: in vivo, New Zealand White rabbits
CONDITION SET: New Zealand White, rabbit, retina, subcutaneous, 5 mg/kg/dose, Retina, 0.5 hr, OS; sodium salt, subcutaneous 5 mg/kg/dose, Group 2; read-out: Retina Conc. (ng/g) OS
QUANTITY: concentration at 0.5 hr (ng/g)
Entry rule: numbers only, all in ng/g.

Sure, the documented concentration at 0.5 hr for COC(=O)N[C@@H](Cc1ccccc1)C(=O)N[C@@H](Cc1ccc(NS(=O)(=O)O)cc1)c1csc(-c2cccs2)n1 [Compound 1] is 48

###

METHOD DESCRIPTION: Ocular tissue concentrations (aqueous humor, vitreous humor, iris, retina, choroid, cornea) after topical ocular, subcutaneous and intravitreal administration
Format: in vivo, New Zealand White rabbits
CONDITION SET: New Zealand White, rabbit, iris, other: intravitreal, 2.5 mg/eye, Iris, 24 hr; sodium salt, intravitreal 2.5 mg/eye, Group 4; read-out: Iris Avg.
QUANTITY: concentration at 24 h (ng/g)
Entry rule: numbers only, all in ng/g.

Sure, the documented concentration at 24 h for "COC(=O)N[C@@H](Cc1ccccc1)C(=O)N[C@@H](Cc1ccc(NS(=O)(=O)O)cc1)c1csc(-c2cccs2)n1" is 141000

###

METHOD DESCRIPTION: Ocular tissue concentrations (aqueous humor, vitreous humor, iris, retina, choroid, cornea) after topical ocular, subcutaneous and intravitreal administration
Assay type: in vivo, New Zealand White rabbits
CONDITION SET: New Zealand White, rabbit, vitreous humor, subcutaneous, 5 mg/kg, Group 3 subcutaneous 5 mg/kg; 0.5 hr; read-out: vitreous humor Average Conc.
QUANTITY: concentration at 0.5 hr (ng/g)
Entry rule: numbers only, all in ng/g.

Sure, the documented concentration at 0.5 hr for COC(=O)N[C@@H](Cc1ccccc1)C(=O)N[C@@H](Cc1ccc(NS(=O)(=O)O)cc1)c1csc(-c2cccs2)n1 [Compound 1 free acid] is 0.4

###

METHOD DESCRIPTION: Ocular tissue concentrations (aqueous humor, vitreous humor, iris, retina, choroid, cornea) after topical ocular, subcutaneous and intravitreal administration
Format: in vivo, New Zealand White rabbits
CONDITION SET: New Zealand White, rabbit, iris homogenate, subcutaneous, 5 mg/kg/dose, TABLE 16: Iris homogenate, 0.5 hr, OS; free acid, subcutaneous 5 mg/kg/dose, Group 3; read-out: Iris Conc. (ng/mL) OS
QUANTITY: concentration at 0.5 h (ng/mL)
Entry rule: numbers only, all in ng/mL.

Sure, the documented concentration at 0.5 h for COC(=O)N[C@@H](Cc1ccccc1)C(=O)N[C@@H](Cc1ccc(NS(=O)(=O)O)cc1)c1csc(-c2cccs2)n1 [Compound 1] is 4.27
